# assay: reversal of MRP1-mediated doxorubicin resistance, pilot screen, H69AR cells, doxorubicin co-treatment (AID 601)
# conditions-used: H69AR cells + 2 uM doxorubicin, CellTiter-Glo, 72 h; measured here: viability with 2 uM doxorubicin; at 10 µM; stronger effect = lower value
Hi! Could you tag entries with viability below 90% as criterion met, and those at or above as criterion not met? Much appreciated.

# molecule, label
records = [
    ("O=C(Cn1c(-c2cncs2)nc2ccccc21)NC1CCCC1", "criterion met"),
    ("O=C(O)C(c1ccccc1)N1CCCC1 (stereo not drawn)", "criterion met"),
    ("Cc1ccc(-c2nnc3c4ccccc4c(C)nn23)cc1NC(=O)c1ccco1", "criterion not met"),
    ("Nc1nc2ccccc2n1/N=C/c1ccc(Br)cc1", "criterion met"),
    ("COc1ccc(C(C)NC(=O)c2ccoc2C)cc1OC (stereo not drawn)", "criterion not met"),
    ("O=C(CSc1ncnc2ccccc12)N1CCN(c2ccccc2)CC1", "criterion met"),
    ("COc1ccc(Br)cc1-c1noc(-c2ccccc2)n1", "criterion met"),
    ("O=C(Nc1nnc(CCN2CCCCC2)s1)C1CCCCC1", "criterion met"),
    ("c1ccc(-c2cc(CSc3nc4ccccc4[nH]3)on2)cc1", "criterion met"),
    ("CC1(C)NC(=O)N(CC(O)COc2ccc(-c3ccccc3)cc2)C1=O (stereo not drawn)", "criterion not met"),
    ("COC(=O)c1[nH]c2c(c1C)C(=O)CC(c1cccs1)C2 (stereo not drawn)", "criterion met"),
    ("O=C(CSc1nnc(-c2ccccc2Br)o1)Nc1cccc2ccccc12", "criterion met"),
    ("Cc1cc(C)c(NC(=O)CSc2nnc(-c3ccncc3)n2Cc2ccco2)c(C)c1", "criterion not met"),
    ("CCOC(=O)c1ccc(NS(=O)(=O)c2ccc3c(c2)CCCN3C(C)=O)cc1", "criterion not met"),
    ("O=C(Nc1ccc2c(c1)OCO2)N1CCN(c2ncccn2)CC1", "criterion not met"),
    ("Cc1ccc(Nc2nc(Oc3ccc(=O)[nH]n3)nc(N(C)C)n2)cc1", "criterion met"),
    ("OC(CCN1CCCCC1)(c1ccccc1)c1ccccc1", "criterion met"),
    ("CCOC(=O)c1nnc2ccnn2c1N", "criterion not met"),
    ("Cc1cc(C)cc(N2C(=O)C3C4C=CC(C4)C3C2=O)c1 (stereo not drawn)", "criterion met"),
    ("CC(C(N)=O)N1C(=O)C2C3C=CC(C3)C2C1=O (stereo not drawn)", "criterion not met"),
    ("CC[C@]1(O)CC2CN(CCc3c([nH]c4ccccc34)[C@@](C(=O)OC)(c3cc4c(cc3OC)N(C=O)[C@H]3[C@@](O)(C(=O)OC)[C@H](OC(C)=O)[C@]5(CC)C=CCN6CC[C@]43[C@@H]65)C2)C1 (stereo partly drawn)", "criterion met"),
    ("CCOc1cc(C2/C(=C(/O)c3ccc(OC(C)C)cc3)C(=O)C(=O)N2CCCOC)ccc1O (stereo not drawn)", "criterion not met"),
    ("CC1CNCCN1S(=O)(=O)c1cccc2cnccc12 (stereo not drawn)", "criterion not met"),
    ("CCOC(=O)N1CCC(NC(=O)C2CCCN2C(=O)OCc2ccccc2)CC1 (stereo not drawn)", "criterion not met"),
    ("CCOC(=O)c1cnc2c(OC)cccc2c1N1CCN(c2ccc(OC)cc2)CC1", "criterion met"),
    ("CC1Oc2ccccc2N(Cc2ccccc2Cl)C1=O (stereo not drawn)", "criterion met"),
]
